Target: Human PD-L1/PD-1 (Homo sapiens, UniProt Q9NZQ7)
Construct: TVMV protease cleavage site (C); made in house; host or cells: HEK293T cells
Sequence (Q9NZQ7 with tags, fused parts or gaps): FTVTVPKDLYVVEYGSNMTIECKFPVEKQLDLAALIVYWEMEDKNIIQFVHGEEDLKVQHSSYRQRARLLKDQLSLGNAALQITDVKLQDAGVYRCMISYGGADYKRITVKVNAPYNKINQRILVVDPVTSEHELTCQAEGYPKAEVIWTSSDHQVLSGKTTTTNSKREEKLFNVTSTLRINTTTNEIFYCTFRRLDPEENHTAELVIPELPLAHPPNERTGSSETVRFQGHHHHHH
Test: HTRF Human PD-L1/PD-1 binding assay (PD-1-Ig/PD-L1-His)
Settings: PD-L1-His 10 nM, PD-1-Ig 20 nM; read-out: HTRF Human PD-L1/PD-1 Binding Assay IC50
Measure name: pIC50
// pIC50 here means minus log10 of the molar concentration (mol/L)

Can you look up the measured pIC50 of "CCCC[C@H]1C(=O)N(C)[C@@H](CCCC)C(=O)N[C@@H](C)C(=O)N[C@H](C(=O)NCC(N)=O)CSCC(=O)N[C@@H](Cc2ccc(O)cc2)C(=O)N2CCCC[C@H]2C(=O)N[C@@H](CC(N)=O)C(=O)N2CCC[C@H]2C(=O)N[C@@H](Cc2cnc[nH]2)C(=O)N[C@@H](CCC(N)=O)C(=O)N2CCNC[C@H]2C(=O)N[C@@H](Cc2c[nH]c3ccccc23)C(=O)N[C@@H](CO)C(=O)N[C@@H](Cc2c[nH]c3ccccc23)C(=O)N1C" for me?
6.33

* * *

Target: Human PD-L1/PD-1 (Homo sapiens, UniProt Q9NZQ7)
Construct: TVMV protease cleavage site (C); made in house; host or cells: HEK293T cells
Test: HTRF Human PD-L1/PD-1 binding assay (PD-1-Ig/PD-L1-His)
Conditions: PD-L1-His 10 nM, PD-1-Ig 20 nM; class symbol; read-out: HTRF Human PD-L1/PD-1 Binding Assay IC50 Range
Text: Methods for Testing the Ability of Macrocyclic Peptides to Compete for the Binding of PD-1 to PD-L1 Using Homogenous Time-Resolved Fluorescence (HTRF) Binding Assays The ability of the macrocyclic peptides of the present disclosure to bind to PD-L1 was investigated using a PD-1/PD-L1 Homogenous Time-Resolved Fluorescence (HTRF) binding assay. Homogenous Time-Resolved Fluorescence (HTRF) Assays of Binding of Soluble PD-1 to Soluble PD-L1. […]
Where a SMILES comes first, the peptide text is derived from it. Bridges are numbered along the chain shown (N, C = ends). [ ]: non-standard residue; d: D form. ξ: configuration not given here. Bta = N[C@@H](Cc1csc2ccccc12)C(=O)O; NMeNle = CCCC[C@H](NC)C(=O)O; NMeA = CN[C@@H](C)C(=O)O; ξC = NC(CS)C(=O)O
Measure name: IC50

Would you kindly share the measured IC50 for CCCC[C@H]1C(=O)N(C)[C@@H](CCCC)C(=O)N[C@@H](CCCNC(=N)N)C(=O)NC(C(=O)NCC(N)=O)CSCC(=O)N[C@@H](Cc2ccc(O)cc2)C(=O)N(C)[C@@H](C)C(=O)N[C@@H](CC(N)=O)C(=O)N2CCC[C@H]2C(=O)N[C@@H](CO)C(=O)N[C@@H](CO)C(=O)N2CCC[C@H]2C(=O)N[C@@H](Cc2c[nH]c3ccccc23)C(=O)N[C@@H](CO)C(=O)N[C@@H](Cc2csc3ccccc23)C(=O)N1C (stereo partly shown) [Example 10015] ({CH2CO}-Y[NMeA]NPSSPWS[Bta][NMeNle][NMeNle]R[ξC]G-NH2; thioether N-14) ?
1 to 9.9 nM

* * *

Target: Human PD-L1/PD-1 (Homo sapiens, UniProt Q9NZQ7)
Construct: TVMV protease cleavage site (C); made in house; host or cells: HEK293T cells
Assay: HTRF Human PD-L1/PD-1 binding assay (PD-1-Ig/PD-L1-His)
Conditions: PD-L1-His 10 nM, PD-1-Ig 20 nM; class symbol; read-out: HTRF Human PD-L1/PD-1 Binding Assay IC50 Range
pIC50: −log10 of the molar value. *1 amine or outer side, *2 acyl side, *3 side chain or, on linkers, in order; H or OH if unused. Where a SMILES comes first, the peptide text is derived from it. Bridges are numbered along the chain shown (N, C = ends). [ ]: non-standard residue; d: D form. ξ: configuration not given here. X7 = CCCC[C@@H](C(=O)C[C@@H](CO)C(=O)[*:2])N(C)[*:1]; Bta = N[C@@H](Cc1csc2ccccc12)C(=O)O; NMeNle = CCCC[C@H](NC)C(=O)O; NMeA = CN[C@@H](C)C(=O)O; ξC = NC(CS)C(=O)O
Measure name: pIC50

# returns recorded pIC50 (system: Human PD-L1/PD-1 (Homo sapiens, UniProt Q9NZQ7)) for CCCC[C@H]1C(=O)N(C)[C@@H](CCCC)C(=O)C[C@@H](CO)C(=O)NC(C(=O)NCC(N)=O)CSCC(=O)N[C@@H](Cc2ccc(O)cc2)C(=O)N(C)[C@@H](C)C(=O)N[C@@H](CC(N)=O)C(=O)N2CCC[C@H]2C(=O)N[C@@H](CC(N)=O)C(=O)N[C@@H](CC(C)C)C(=O)N2CCC[C@H]2C(=O)N[C@@H](Cc2c[nH]c3ccccc23)C(=O)N[C@@H](CO)C(=O)N[C@@H](Cc2csc3ccccc23)C(=O)N1C (stereo partly shown) [Example 9141] ({CH2CO}-Y[NMeA]NPNLPWS[Bta][NMeNle][X7][ξC]G-NH2; thioether N-13)
7.00 to 8.00

Data origin: patent US10538555B2
